Measured values drawn from the supplement of paper PMC9112550 for this set.

Test system: Escherichia coli TOP10
assay-procedure: shrunken log2 fold change of peptide-encoding DNA abundance (4.5 h post-induction vs induction); higher = less antimicrobial activity (less host growth inhibition)
experimental-setup: time post-induction: 4.5 h; library: site-saturation at positions 5, 18, 19, 20
measured-parameter: shrunken log2 fold change
The reply should be a number, written without any unit.

Use these answered entries as a reference point.
RRIRIRPPRLPRPRPRPRVEPRP | -0.0648
RRIRARPPRLPRPRPRPIPKPRP | 0.394
RRIRNRPPRLPRPRPRPSSIPRP | -0.0475
RRIRARPPRLPRPRPRPSEMPRP | 0.29
RRIRGRPPRLPRPRPRPCIWPRP | 0.208

Value lookup for shrunken log2 fold change; key = `RRIRPRPPRLPRPRPRPWRIPRP`
-0.0585

Value lookup for shrunken log2 fold change; key = `RRIRQRPPRLPRPRPRPRWIPRP`
0.274

Value lookup for shrunken log2 fold change; key = `RRIRHRPPRLPRPRPRPQCEPRP`
-0.122

====

The following sequences are listed with their measured shrunken log2 fold change values.
Tested on: Escherichia coli TOP10
assay-procedure: shrunken log2 fold change of peptide-encoding DNA abundance (4.5 h post-induction vs induction); higher = less antimicrobial activity (less host growth inhibition)
experimental-setup: time post-induction: 4.5 h; library: site-saturation at positions 5, 18, 19, 20

Use these answered entries as a reference point.
RRIRMRPPRLPRPRPRPRQGPRP | -0.0232
RRIRFRPPRLPRPRPRPTHLPRP | 0.222
RRIRARPPRLPRPRPRPNIYPRP | -0.418
RRIRCRPPRLPRPRPRPDFSPRP | -0.377
RRIRKRPPRLPRPRPRPVGPPRP | 0.441
RRIRLRPPRLPRPRPRPQPCPRP | -0.215
RRIRTRPPRLPRPRPRPRKCPRP | -0.1
RRIRFRPPRLPRPRPRPKAAPRP | 0.264

Missing value: shrunken log2 fold change, Escherichia coli TOP10, entry `RRIRYRPPRLPRPRPRPIGWPRP` . Fill in?
0.11

Missing value: shrunken log2 fold change, Escherichia coli TOP10, entry `RRIRGRPPRLPRPRPRPGHTPRP` . Fill in?
0.0237

Missing value: shrunken log2 fold change, Escherichia coli TOP10, entry `RRIRWRPPRLPRPRPRPRTSPRP` . Fill in?
-0.0212

Missing value: shrunken log2 fold change, Escherichia coli TOP10, entry `RRIRNRPPRLPRPRPRPITCPRP` . Fill in?
-0.166

Missing value: shrunken log2 fold change, Escherichia coli TOP10, entry `RRIRSRPPRLPRPRPRPAYLPRP` . Fill in?
-0.731

Missing value: shrunken log2 fold change, Escherichia coli TOP10, entry `RRIRNRPPRLPRPRPRPWPRPRP` . Fill in?
-0.0347

====

Test system: Escherichia coli TOP10;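 also: peptides expressed intracellularly from a pBAD plasmid library in pooled LB shake-flask culture, induced with 0.3% L-arabinose, DNA abundance read by NGS, three biological replicates, DESeq2 with apeglm shrinkage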
assay-procedure: shrunken log2 fold change of peptide-encoding DNA abundance (4.5 h post-induction vs induction); higher = less antimicrobial activity (less host growth inhibition)
experimental-setup: time post-induction: 4.5 h; library: site-saturation at positions 5, 18, 19, 20
Outcome: yes (1) for shrunken log2 fold change of at least -0.02; no (0) for anything lower.

Example entries begin here.
RRIRRRPPRLPRPRPRPVTRPRP | yes (1)
RRIRLRPPRLPRPRPRPAKYPRP | no (0)
RRIRQRPPRLPRPRPRPESFPRP | yes (1)
RRIRNRPPRLPRPRPRPTKSPRP | yes (1)
RRIRPRPPRLPRPRPRPEQVPRP | yes (1)

Does shrunken log2 fold change meet or surpass -0.02 for `RRIRGRPPRLPRPRPRPSWQPRP` ?
yes (1)

Does shrunken log2 fold change meet or surpass -0.02 for `RRIRIRPPRLPRPRPRPKSQPRP` ?
no (0)

Does shrunken log2 fold change meet or surpass -0.02 for `RRIRYRPPRLPRPRPRPIAIPRP` ?
no (0)
